- TEST_TARGET: Phosphatidylinositol 4,5-bisphosphate 3-kinase catalytic subunit gamma isoform (Homo sapiens, UniProt P48736)
- Sequence (P48736 whole entry, canonical isoform): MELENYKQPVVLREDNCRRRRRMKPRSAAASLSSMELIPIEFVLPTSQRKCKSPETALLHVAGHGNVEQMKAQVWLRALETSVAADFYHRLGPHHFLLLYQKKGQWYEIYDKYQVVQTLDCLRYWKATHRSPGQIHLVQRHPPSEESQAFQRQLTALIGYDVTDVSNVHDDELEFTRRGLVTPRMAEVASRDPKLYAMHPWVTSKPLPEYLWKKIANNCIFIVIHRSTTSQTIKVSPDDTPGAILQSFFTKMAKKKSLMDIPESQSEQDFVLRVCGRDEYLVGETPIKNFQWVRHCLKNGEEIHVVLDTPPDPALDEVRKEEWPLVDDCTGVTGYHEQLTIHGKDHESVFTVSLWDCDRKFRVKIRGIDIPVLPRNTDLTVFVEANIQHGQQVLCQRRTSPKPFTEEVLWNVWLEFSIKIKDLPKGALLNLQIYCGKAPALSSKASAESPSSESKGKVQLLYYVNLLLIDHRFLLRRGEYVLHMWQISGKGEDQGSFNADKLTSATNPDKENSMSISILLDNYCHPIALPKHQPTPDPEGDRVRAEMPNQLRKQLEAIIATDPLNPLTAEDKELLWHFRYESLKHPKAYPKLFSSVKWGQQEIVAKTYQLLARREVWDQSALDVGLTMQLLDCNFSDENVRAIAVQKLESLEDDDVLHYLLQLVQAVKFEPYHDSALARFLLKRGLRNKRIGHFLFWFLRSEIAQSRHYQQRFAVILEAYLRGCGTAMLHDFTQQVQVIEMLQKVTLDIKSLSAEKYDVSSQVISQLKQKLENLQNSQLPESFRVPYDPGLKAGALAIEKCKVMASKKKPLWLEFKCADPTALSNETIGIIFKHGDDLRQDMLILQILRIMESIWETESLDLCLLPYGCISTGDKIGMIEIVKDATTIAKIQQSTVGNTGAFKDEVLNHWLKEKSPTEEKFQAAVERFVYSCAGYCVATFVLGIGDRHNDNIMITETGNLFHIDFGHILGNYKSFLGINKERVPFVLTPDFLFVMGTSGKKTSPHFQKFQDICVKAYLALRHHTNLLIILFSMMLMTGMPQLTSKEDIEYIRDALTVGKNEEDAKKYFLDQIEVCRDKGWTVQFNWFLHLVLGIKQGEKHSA
- TEST_DETAILS: Inhibition of histidine-tagged recombinant human full length PI3Kgamma expressed in insect cells preincubated for 15 mins followed by addition of cold ATP/gamma32P-ATP measured after 15 mins in presence of MgCl2
Assignment: determine reported IC50 for the given molecules.
Write down the numeric answer in nM and omit the unit.

Q: Look up IC50 for this molecule: COc1ccc(-c2sc(NC(=O)C(C)(C)C)nc2C)cc1S(=O)(=O)Nc1ccc(O)cc1
A: 20000

Q: Look up IC50 for this molecule: COc1ccc(-c2sc(NC(C)=O)nc2C)cc1S(=O)(=O)NCCO
A: 181

Q: Look up IC50 for this molecule: CC(=O)Nc1nc(C)c(-c2ccc(Br)c(S(=O)(=O)NCCO)c2)s1
A: 21

Q: Look up IC50 for this molecule: Cc1nc(NC(=O)C(C)(C)C)sc1-c1ccc(Cl)c(S(=O)(=O)NCCO)c1
A: 3700

Q: Look up IC50 for this molecule: CC(=O)Nc1nc(C)c(-c2ccc(Cl)c(S(=O)(=O)Nc3ccc(F)cc3)c2)s1
A: 31

Q: Look up IC50 for this molecule: CC(=O)Nc1nc(C)c(-c2ccc(Cl)c(S(=O)(=O)Nc3ccc(O)cc3)c2)s1
A: 5

Q: Look up IC50 for this molecule: COc1ccc(-c2sc(NC(=O)C3CCCC3)nc2C)cc1S(=O)(=O)Nc1ccc(O)cc1
A: 1050

Q: Look up IC50 for this molecule: Cc1nc(NC(=O)C2CCCC2)sc1-c1ccc(Cl)c(S(=O)(=O)NCCO)c1
A: 1500

----------
- Test system: Hepatitis C virus
- TEST_DETAILS: Antiviral activity against HCV genotype 2a J6/JFH1 infected in human Huh7.5 cells after 3 days by gaussia luciferase assay
- Assay type: functional, organism-based, Hepacivirus hominis
- CONDITION_CONTEXT: subtype 2a J6/JFH1, Huh-7, 72 h
Assignment: determine reported log10(IC50) for the given molecules.
Transform log10 | Measure IC50 | Unit µM

Q: Look up log10(IC50) for this molecule: COc1ccc(-c2sc(NC(=O)C(C)(C)C)nc2C)cc1S(=O)(=O)Nc1ccc(O)cc1
A: 0.11

Q: Look up log10(IC50) for this molecule: Cc1nc(NC(=O)C2CCCC2)sc1-c1ccc(Cl)c(S(=O)(=O)NCCO)c1
A: 0.64

Q: Look up log10(IC50) for this molecule: COc1ccc(-c2sc(NC(=O)C3CCCC3)nc2C)cc1S(=O)(=O)Nc1ccc(O)cc1
A: -0.20

Q: Look up log10(IC50) for this molecule: COc1ccc(-c2sc(NC(C)=O)nc2C)cc1S(=O)(=O)NCCO
A: 1.46

Q: Look up log10(IC50) for this molecule: CC(=O)/N=c1/[nH]c(C)c(-c2ccc(Cl)c(S(=O)(=O)NCCO)c2)s1
A: 0.68

Q: Look up log10(IC50) for this molecule: CC(=O)Nc1nc(C)c(-c2ccc(Br)c(S(=O)(=O)NCCO)c2)s1
A: 0.48

Q: Look up log10(IC50) for this molecule: CC(=O)Nc1nc(C)c(-c2ccc(Cl)c(S(=O)(=O)Nc3ccc(F)cc3)c2)s1
A: 0.77

Q: Look up log10(IC50) for this molecule: Cc1nc(NC(=O)C(C)(C)C)sc1-c1ccc(Cl)c(S(=O)(=O)NCCO)c1
A: 0.83

Q: Look up log10(IC50) for this molecule: CC(=O)Nc1nc(C)c(-c2ccc(Cl)c(S(=O)(=O)Nc3ccc(O)cc3)c2)s1
A: -0.24

Q: Look up log10(IC50) for this molecule: COc1ccc(-c2sc(NC(=O)C(C)(C)C)nc2C)cc1S(=O)(=O)NCCO
A: 1.23

----------
Assignment: determine reported IC50 for the given compounds.
- TEST_DETAILS: Inhibition of N-terminal flag-tagged recombinant human full length PI4K3alpha expressed in baculovirus infected Sf21 insect cells preincubated for 15 mins followed by addition of cold ATP/gamma32P-ATP measured after 25 mins

Q: Look up IC50 for this compound: COc1ccc(-c2sc(NC(=O)C(C)(C)C)nc2C)cc1S(=O)(=O)Nc1ccc(O)cc1
A: 3000 nM

Q: Look up IC50 for this compound: COc1ccc(-c2sc(NC(=O)C3CCCC3)nc2C)cc1S(=O)(=O)Nc1ccc(O)cc1
A: 2600 nM

----------
Assignment: determine reported CC50 at 72 h for the given compounds.
- TEST_DETAILS: Cytotoxicity against human Huh7.5 cells after 3 days by presto blue assay
- Assay type: cell-based, Huh-7

Q: Look up CC50 at 72 h for this compound: COc1ccc(-c2sc(NC(=O)C3CCCC3)nc2C)cc1S(=O)(=O)Nc1ccc(O)cc1
A: 14 µM

Q: Look up CC50 at 72 h for this compound: CC(=O)Nc1nc(C)c(-c2ccc(Cl)c(S(=O)(=O)Nc3ccc(F)cc3)c2)s1
A: 13 µM

Q: Look up CC50 at 72 h for this compound: CC(=O)/N=c1/[nH]c(C)c(-c2ccc(Cl)c(S(=O)(=O)NCCO)c2)s1
A: 10 µM

Q: Look up CC50 at 72 h for this compound: Cc1nc(NC(=O)C2CCCC2)sc1-c1ccc(Cl)c(S(=O)(=O)NCCO)c1
A: 20 µM

Q: Look up CC50 at 72 h for this compound: COc1ccc(-c2sc(NC(=O)C(C)(C)C)nc2C)cc1S(=O)(=O)NCCO
A: > 40 µM

Q: Look up CC50 at 72 h for this compound: Cc1nc(NC(=O)C(C)(C)C)sc1-c1ccc(Cl)c(S(=O)(=O)NCCO)c1
A: 33 µM

Q: Look up CC50 at 72 h for this compound: COc1ccc(-c2sc(NC(=O)C(C)(C)C)nc2C)cc1S(=O)(=O)Nc1ccc(O)cc1
A: 32 µM

Q: Look up CC50 at 72 h for this compound: CC(=O)Nc1nc(C)c(-c2ccc(Br)c(S(=O)(=O)NCCO)c2)s1
A: 5.5 µM

Q: Look up CC50 at 72 h for this compound: CC(=O)Nc1nc(C)c(-c2ccc(Cl)c(S(=O)(=O)Nc3ccc(O)cc3)c2)s1
A: 7 µM

Q: Look up CC50 at 72 h for this compound: COc1ccc(-c2sc(NC(C)=O)nc2C)cc1S(=O)(=O)NCCO
A: 42 µM

----------
Assignment: determine reported pIC50 for the given compounds.
- TEST_TARGET: Phosphatidylinositol 3-kinase C2 domain-containing subunit gamma (Homo sapiens, UniProt O75747)
- Sequence (O75747 whole entry, the tested form may be a part): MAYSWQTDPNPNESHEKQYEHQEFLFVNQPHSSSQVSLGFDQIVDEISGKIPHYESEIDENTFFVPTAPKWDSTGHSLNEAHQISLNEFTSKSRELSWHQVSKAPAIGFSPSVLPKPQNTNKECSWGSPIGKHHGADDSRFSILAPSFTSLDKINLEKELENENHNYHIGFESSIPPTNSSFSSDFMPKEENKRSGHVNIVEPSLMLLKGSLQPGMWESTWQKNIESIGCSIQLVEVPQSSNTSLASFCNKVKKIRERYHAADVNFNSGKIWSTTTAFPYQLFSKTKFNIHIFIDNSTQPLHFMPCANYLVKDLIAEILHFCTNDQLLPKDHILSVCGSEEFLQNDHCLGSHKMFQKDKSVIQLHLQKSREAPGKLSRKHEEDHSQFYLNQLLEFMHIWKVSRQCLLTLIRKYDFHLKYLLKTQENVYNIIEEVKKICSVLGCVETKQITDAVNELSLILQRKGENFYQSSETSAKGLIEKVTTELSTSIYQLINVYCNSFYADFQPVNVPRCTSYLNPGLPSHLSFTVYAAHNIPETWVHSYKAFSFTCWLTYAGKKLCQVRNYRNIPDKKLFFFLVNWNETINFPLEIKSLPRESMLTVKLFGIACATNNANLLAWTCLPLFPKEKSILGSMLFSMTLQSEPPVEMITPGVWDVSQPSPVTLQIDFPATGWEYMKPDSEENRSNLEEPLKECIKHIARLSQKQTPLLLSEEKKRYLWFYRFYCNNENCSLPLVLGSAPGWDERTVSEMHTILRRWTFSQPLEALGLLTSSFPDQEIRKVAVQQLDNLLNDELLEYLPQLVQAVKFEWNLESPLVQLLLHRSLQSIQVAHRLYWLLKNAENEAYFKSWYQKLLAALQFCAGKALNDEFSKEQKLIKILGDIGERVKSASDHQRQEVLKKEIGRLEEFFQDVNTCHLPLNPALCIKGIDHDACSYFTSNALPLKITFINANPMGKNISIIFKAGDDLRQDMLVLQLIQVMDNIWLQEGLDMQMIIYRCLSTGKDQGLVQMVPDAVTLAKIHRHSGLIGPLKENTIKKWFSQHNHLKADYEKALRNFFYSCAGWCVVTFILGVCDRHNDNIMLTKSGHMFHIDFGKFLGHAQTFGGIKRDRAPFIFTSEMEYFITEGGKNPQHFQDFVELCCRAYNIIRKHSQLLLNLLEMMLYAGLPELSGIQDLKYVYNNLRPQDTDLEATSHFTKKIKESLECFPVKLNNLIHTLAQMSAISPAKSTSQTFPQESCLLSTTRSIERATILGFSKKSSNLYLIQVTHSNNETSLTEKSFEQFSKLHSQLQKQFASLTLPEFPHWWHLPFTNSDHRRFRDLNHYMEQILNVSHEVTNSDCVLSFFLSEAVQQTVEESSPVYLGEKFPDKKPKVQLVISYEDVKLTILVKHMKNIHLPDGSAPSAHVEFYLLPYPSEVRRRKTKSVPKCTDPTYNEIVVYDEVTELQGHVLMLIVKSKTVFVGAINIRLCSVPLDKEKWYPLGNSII
- TEST_DETAILS: Inhibition of N-terminal GST-tagged recombinant human full length PI3KC2gamma expressed in baculovirus infected Sf21 insect cells preincubated for 15 mins followed by addition of cold ATP/gamma32P-ATP measured after 15 mins
# pIC50 = -log10(concentration in molar units)

Q: Look up pIC50 for this compound: COc1ccc(-c2sc(NC(=O)C(C)(C)C)nc2C)cc1S(=O)(=O)Nc1ccc(O)cc1
A: 6.00

Q: Look up pIC50 for this compound: COc1ccc(-c2sc(NC(=O)C3CCCC3)nc2C)cc1S(=O)(=O)Nc1ccc(O)cc1
A: 6.00

----------
Assignment: determine reported IC50 for the given molecules.
- TEST_TARGET: Phosphatidylinositol 3-kinase catalytic subunit type 3 (Homo sapiens, UniProt Q8NEB9)
- Sequence (Q8NEB9 whole entry): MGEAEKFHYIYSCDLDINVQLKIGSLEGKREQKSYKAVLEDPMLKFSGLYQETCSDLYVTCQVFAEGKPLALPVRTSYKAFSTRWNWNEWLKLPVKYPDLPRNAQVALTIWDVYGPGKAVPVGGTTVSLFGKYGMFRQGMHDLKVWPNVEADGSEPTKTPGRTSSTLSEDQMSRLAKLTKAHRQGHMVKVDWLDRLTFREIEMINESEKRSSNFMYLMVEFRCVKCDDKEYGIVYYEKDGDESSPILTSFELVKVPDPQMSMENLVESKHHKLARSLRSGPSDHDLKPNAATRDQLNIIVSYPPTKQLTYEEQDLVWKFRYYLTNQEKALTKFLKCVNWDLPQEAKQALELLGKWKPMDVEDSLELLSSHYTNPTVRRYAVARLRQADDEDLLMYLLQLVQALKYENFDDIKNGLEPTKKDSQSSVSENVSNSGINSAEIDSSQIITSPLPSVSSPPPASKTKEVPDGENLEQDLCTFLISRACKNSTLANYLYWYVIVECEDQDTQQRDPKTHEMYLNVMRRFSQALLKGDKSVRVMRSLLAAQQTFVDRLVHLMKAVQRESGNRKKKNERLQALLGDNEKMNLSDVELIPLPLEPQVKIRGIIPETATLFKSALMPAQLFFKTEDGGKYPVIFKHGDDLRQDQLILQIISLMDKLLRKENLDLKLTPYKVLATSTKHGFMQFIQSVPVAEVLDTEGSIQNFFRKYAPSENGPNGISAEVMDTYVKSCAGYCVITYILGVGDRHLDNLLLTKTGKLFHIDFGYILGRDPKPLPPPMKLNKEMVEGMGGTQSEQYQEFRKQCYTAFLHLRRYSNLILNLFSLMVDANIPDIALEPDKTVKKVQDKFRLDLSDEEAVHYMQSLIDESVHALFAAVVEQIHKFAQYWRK
- TEST_DETAILS: Inhibition of GST-tagged recombinant human full length VPS34 expressed in baculovirus preincubated for 15 mins followed by addition of cold ATP/gamma32P-ATP measured after 1 hr in presence of MnCl2

Q: Form field: IC50 recorded for Cc1nc(NC(=O)C(C)(C)C)sc1-c1ccc(Cl)c(S(=O)(=O)NCCO)c1 with Phosphatidylinositol 3-kinase catalytic subunit type 3 (Homo sapiens, UniProt Q8NEB9) (enter value)
A: > 50000 nM

Q: Form field: IC50 recorded for CC(=O)Nc1nc(C)c(-c2ccc(Br)c(S(=O)(=O)NCCO)c2)s1 with Phosphatidylinositol 3-kinase catalytic subunit type 3 (Homo sapiens, UniProt Q8NEB9) (enter value)
A: 146 nM

Q: Form field: IC50 recorded for CC(=O)Nc1nc(C)c(-c2ccc(Cl)c(S(=O)(=O)Nc3ccc(F)cc3)c2)s1 with Phosphatidylinositol 3-kinase catalytic subunit type 3 (Homo sapiens, UniProt Q8NEB9) (enter value)
A: 245 nM

Q: Form field: IC50 recorded for COc1ccc(-c2sc(NC(C)=O)nc2C)cc1S(=O)(=O)NCCO with Phosphatidylinositol 3-kinase catalytic subunit type 3 (Homo sapiens, UniProt Q8NEB9) (enter value)
A: > 50000 nM

Q: Form field: IC50 recorded for COc1ccc(-c2sc(NC(=O)C3CCCC3)nc2C)cc1S(=O)(=O)Nc1ccc(O)cc1 with Phosphatidylinositol 3-kinase catalytic subunit type 3 (Homo sapiens, UniProt Q8NEB9) (enter value)
A: > 20000 nM

Q: Form field: IC50 recorded for COc1ccc(-c2sc(NC(=O)C(C)(C)C)nc2C)cc1S(=O)(=O)NCCO with Phosphatidylinositol 3-kinase catalytic subunit type 3 (Homo sapiens, UniProt Q8NEB9) (enter value)
A: > 50000 nM

Q: Form field: IC50 recorded for Cc1nc(NC(=O)C2CCCC2)sc1-c1ccc(Cl)c(S(=O)(=O)NCCO)c1 with Phosphatidylinositol 3-kinase catalytic subunit type 3 (Homo sapiens, UniProt Q8NEB9) (enter value)
A: > 50000 nM

Q: Form field: IC50 recorded for CC(=O)Nc1nc(C)c(-c2ccc(Cl)c(S(=O)(=O)Nc3ccc(O)cc3)c2)s1 with Phosphatidylinositol 3-kinase catalytic subunit type 3 (Homo sapiens, UniProt Q8NEB9) (enter value)
A: 32 nM

Q: Form field: IC50 recorded for CC(=O)/N=c1/[nH]c(C)c(-c2ccc(Cl)c(S(=O)(=O)NCCO)c2)s1 with Phosphatidylinositol 3-kinase catalytic subunit type 3 (Homo sapiens, UniProt Q8NEB9) (enter value)
A: 307 nM

Q: Form field: IC50 recorded for COc1ccc(-c2sc(NC(=O)C(C)(C)C)nc2C)cc1S(=O)(=O)Nc1ccc(O)cc1 with Phosphatidylinositol 3-kinase catalytic subunit type 3 (Homo sapiens, UniProt Q8NEB9) (enter value)
A: > 20000 nM
